# Assayed System: T1, human RXFP1 (human, UniProt Q9HBX9 1-757)
# T1 sequence (looked up): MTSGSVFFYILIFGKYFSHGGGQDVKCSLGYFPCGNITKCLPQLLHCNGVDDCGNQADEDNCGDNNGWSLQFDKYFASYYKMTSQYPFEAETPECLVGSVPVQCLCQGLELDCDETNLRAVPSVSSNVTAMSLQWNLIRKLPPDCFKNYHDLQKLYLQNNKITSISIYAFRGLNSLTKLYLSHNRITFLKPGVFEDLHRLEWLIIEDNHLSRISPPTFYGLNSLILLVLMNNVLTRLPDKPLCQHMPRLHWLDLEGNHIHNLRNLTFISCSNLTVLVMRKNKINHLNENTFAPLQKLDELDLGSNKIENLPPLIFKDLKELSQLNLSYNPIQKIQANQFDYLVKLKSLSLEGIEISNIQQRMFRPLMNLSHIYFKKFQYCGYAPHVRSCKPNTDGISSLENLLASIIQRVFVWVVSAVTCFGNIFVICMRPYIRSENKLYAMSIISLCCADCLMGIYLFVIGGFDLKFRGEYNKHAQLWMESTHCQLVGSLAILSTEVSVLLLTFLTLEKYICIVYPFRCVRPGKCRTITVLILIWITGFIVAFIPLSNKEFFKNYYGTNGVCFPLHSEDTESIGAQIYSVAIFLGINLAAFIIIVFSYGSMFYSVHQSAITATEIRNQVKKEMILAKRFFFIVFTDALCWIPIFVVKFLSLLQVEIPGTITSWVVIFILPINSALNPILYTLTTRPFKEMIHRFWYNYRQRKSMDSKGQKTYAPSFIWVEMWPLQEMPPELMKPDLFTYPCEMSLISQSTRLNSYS
# Test Name: cell-based or functional assay
Observed Property: Potency (cAMP, transient hRXFP1 in HEK293) (nM)
The reply should be a number in nM, with the unit left off.

Entry SEQ ID NO: 136 (Fc fusion) DKTHTCPPCPAPEAAGGPSVFLFPPKPKDTLMISRTPEVTCVVVDVSHEDPEVKFNWYVDGVEVHNAKTKPREEQYNSTYRVVSVLTVLHQDWLNGKEYKCKVSNKALAAPIEKTISKAKGQPREPQVYTLPPSRDELTKNQVSLTCLVKGFYPSDIAVEWESNGQPENNYKTTPPVLDSDGSFFLYSKLTVDKSRWQQGNVFSCSVLHEALHSHYTQKSLSLSPGKGGSDSYQEEVIKLCGRELVRAQIAICGKSTGGEGSGGEGEGGGRQLYSALANKCCKVGCTKQSLAQFC , Potency (cAMP, transient hRXFP1 in HEK293) reported as 17.6

Origin of measurements: patent US20250333467A1
